Target: SIRT1 (Homo sapiens, UniProt Q96EB6)
Assay: Trp mass spectrometry assay of SIRT1 activation
Format: biochemical
Conditions: Trp mass spectrometry assay; EC1.5 = concentration of test compound that results in 150% activation of SIRT1
readout kind: Tryp AVG EC1.5 (μM)

| compound | measured result |
| --- | --- |
| CC(C)(C)OC(=O)N1CCCc2ccc(NC(=O)N3c4nc(-c5cccc(C(F)(F)F)c5)ccc4N4CC[C@H]3C4)cc21 [Example 610] | B (B (EC1.5 1-25 μM)) |
| O=C1OC2(c3ccc(O)cc3Oc3cc(O)ccc32)c2ccc(NC(=S)NCc3cn(C4=CC(NC(=O)N5c6nc(-c7cccc(C(F)(F)F)c7)ccc6N6CC[C@H]5C6)CC=C4)nn3)cc21 (stereo partly shown) [Example 608] | C (C (EC1.5>25 μM)) |
| O=C(Nc1ccccn1)N1c2nc(-c3cncc(F)c3)ccc2N2CCC1CC2 [Example 570] | B (B (EC1.5 1-25 μM)) |
| Cc1nc(NC(=O)N2c3nc(-c4cncc(F)c4)ccc3N3CCC2CC3)sc1C [Example 577] | B (B (EC1.5 1-25 μM)) |
| Cc1[nH]ncc1-c1ccc2c(n1)N(C(=O)Nc1cccnc1)[C@H]1CCN2C1 [Example 490] | B (B (EC1.5 1-25 μM)) |
| N#Cc1cncc(-c2ccc3c(n2)N(C(=O)Nc2cncc(F)c2)[C@H]2CCCN3C2)c1 [Example 535] | B (B (EC1.5 1-25 μM)) |
| O=C(Nc1cccc(-c2cnco2)c1)N1c2nc(-c3cccc(C(F)(F)F)c3)ccc2N2CCC1CC2 [Example 473] | A (A (EC1.5<1 μM)) |
| O=C(Nc1cccc(-c2cnco2)c1)N1c2nc(-c3cncc(F)c3)ccc2N2CCC1CC2 [Example 574] | A (A (EC1.5<1 μM)) |
| Cc1ccncc1-c1ccc2c(n1)N(C(=O)Nc1nc(C)c(C)s1)[C@H]1CCCN2C1 [Example 508] | C (C (EC1.5>25 μM)) |
| COc1cc(NC(=O)N2c3nc(-c4cncc(F)c4)ccc3N3CCC2CC3)ncn1 [Example 579] | B (B (EC1.5 1-25 μM)) |
| COc1cc(NC(=O)N2c3nc(-c4ccnc(N5CC[C@@H](F)C5)c4)ccc3N3CC[C@H]2C3)ncn1 [Example 424] | B (B (EC1.5 1-25 μM)) |
| O=C(Nc1cncc(Br)c1)N1c2nc(-c3cccc(C(F)(F)F)c3)ccc2N2CC[C@H]1C2 [Example 542] | A (A (EC1.5<1 μM)) |
| O=C(Nc1ccccn1)N1c2nc(-c3ccnc(N4CC[C@H](F)C4)c3)ccc2N2CC[C@H]1C2 [Example 422] | A (A (EC1.5<1 μM)) |
| Cc1ccncc1-c1ccc2c(n1)N(C(=O)Nc1cncc(F)c1)[C@H]1CCCN2C1 [Example 510] | B (B (EC1.5 1-25 μM)) |
| Cc1ccncc1-c1ccc2c(n1)N(C(=O)Nc1ccncn1)[C@H]1CCCN2C1 [Example 518] | C (C (EC1.5>25 μM)) |
| Cc1cc(-c2ccc3c(n2)N(C(=O)Nc2ccc4c(cnn4C)c2)[C@H]2CCN3C2)ccn1 [Example 502] | A (A (EC1.5<1 μM)) |

----------
Target: SIRT1 (Homo sapiens, UniProt Q96EB6)
Sequence (Q96EB6 1-747): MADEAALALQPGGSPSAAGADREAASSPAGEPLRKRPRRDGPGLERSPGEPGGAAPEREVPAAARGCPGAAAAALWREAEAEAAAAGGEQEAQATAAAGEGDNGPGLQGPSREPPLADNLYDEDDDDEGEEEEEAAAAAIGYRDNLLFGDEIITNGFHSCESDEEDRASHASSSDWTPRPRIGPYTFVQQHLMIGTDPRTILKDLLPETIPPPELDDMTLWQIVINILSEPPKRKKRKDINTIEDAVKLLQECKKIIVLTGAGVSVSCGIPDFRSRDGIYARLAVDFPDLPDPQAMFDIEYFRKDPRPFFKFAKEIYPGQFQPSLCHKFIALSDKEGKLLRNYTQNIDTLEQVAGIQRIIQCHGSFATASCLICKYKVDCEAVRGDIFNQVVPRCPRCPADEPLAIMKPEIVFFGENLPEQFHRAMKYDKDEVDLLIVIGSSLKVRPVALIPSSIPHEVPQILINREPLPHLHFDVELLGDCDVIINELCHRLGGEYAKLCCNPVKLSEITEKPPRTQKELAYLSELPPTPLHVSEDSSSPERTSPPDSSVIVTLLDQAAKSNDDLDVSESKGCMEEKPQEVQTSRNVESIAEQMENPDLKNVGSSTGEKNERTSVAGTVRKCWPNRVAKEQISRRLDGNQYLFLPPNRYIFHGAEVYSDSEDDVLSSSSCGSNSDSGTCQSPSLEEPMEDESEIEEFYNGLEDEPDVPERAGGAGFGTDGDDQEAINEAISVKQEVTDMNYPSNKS
Assay: Trp mass spectrometry assay of SIRT1 activation
Format: biochemical
Details: concentration giving 150% activation of SIRT1; Trp peptide substrate

| compound | Tryp AVG EC1.5 (μM) |
| --- | --- |
| C#CCCCNc1nccc(NC(=O)N2c3nc(-c4cccc(C5(C(F)(F)F)N=N5)c4)ccc3N3CC[C@H]2C3)n1 [Example 801] | A (A (EC1.5<1 μM)) |
| CC(C)(C)OC(=O)NCCCc1cc(NC(=O)N2c3nc(-c4cccc(C(F)(F)F)c4)ccc3N3CC[C@H]2C3)cc(-c2cnco2)c1 [Example 759] | B (B (EC1.5 1-25 μM)) |
| O=C(Nc1cccnc1)N1c2nc(-c3cccc(Cl)c3)ccc2N2C[C@@H](O)[C@H]1C2 [Example 681] | B (B (EC1.5 1-25 μM)) |
| COc1cc(NC(=O)N2c3nc(-c4cncc(C(F)(F)F)c4)ccc3N3C[C@@H](O)[C@H]2C3)nc(OC)n1 [Example 704] | B (B (EC1.5 1-25 μM)) |
| Cc1nc(NC(=O)N2c3nc(-c4cncc(C(F)(F)F)c4)ccc3N3C[C@@H](O)[C@H]2C3)sc1C [Example 697] | B (B (EC1.5 1-25 μM)) |
| CC(C)(C)OC(=O)NCCCc1cc(NC(=O)N2c3nc(-c4cccc(C(F)(F)F)c4)ccc3N3CCC[C@H]2C3)cc(-c2cnco2)c1 [Example 754] | A (A (EC1.5<1 μM)) |
| O=C(Nc1ccncn1)N1c2nc(-c3cccc(C(F)(F)F)c3)ccc2N2C[C@@H](O)[C@H]1C2 [Example 669] | B (B (EC1.5 1-25 μM)) |
